Entry source: the supplement of paper PMC11908140

B1: library; numbered along this chain (parent)
chain: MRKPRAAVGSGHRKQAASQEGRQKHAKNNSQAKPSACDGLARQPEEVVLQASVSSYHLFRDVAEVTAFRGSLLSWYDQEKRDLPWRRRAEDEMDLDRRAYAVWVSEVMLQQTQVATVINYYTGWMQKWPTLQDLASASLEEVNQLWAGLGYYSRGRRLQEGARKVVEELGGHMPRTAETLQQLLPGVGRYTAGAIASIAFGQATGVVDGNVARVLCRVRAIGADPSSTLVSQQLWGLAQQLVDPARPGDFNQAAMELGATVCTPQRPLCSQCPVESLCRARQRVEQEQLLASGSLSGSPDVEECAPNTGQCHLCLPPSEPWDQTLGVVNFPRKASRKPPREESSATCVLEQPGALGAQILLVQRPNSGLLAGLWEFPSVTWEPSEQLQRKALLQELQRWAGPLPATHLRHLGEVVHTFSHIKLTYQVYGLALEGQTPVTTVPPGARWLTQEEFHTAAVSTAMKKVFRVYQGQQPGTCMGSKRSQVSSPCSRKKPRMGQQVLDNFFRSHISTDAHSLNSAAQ

# Variants of: B1
# procedureSummary: 8OG:A repair function score (normalized; synonymous = 0, nonsense = -1) (normalized log-likelihood score); higher = more repair activity (WT-like);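 further: cells sorted at 72 h after reporter transfection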
# reportedConditions: with 8OG:A DNA repair reporter (GFP) in HEK-293 MUTYH KO cells
Measured 8OG:A repair function score values are reported for all entries that follow.
observable: 8OG:A repair function score

| mutationId | observable | recordedNumber |
| --- | --- | --- |
| Y428W | 8OG:A repair function score | 0.228 |
| F453L | 8OG:A repair function score | -0.306 |
| K337D | 8OG:A repair function score | -0.151 |
| T406C | 8OG:A repair function score | 0.13 |
| Q386G | 8OG:A repair function score | 0.0232 |
| E106H | 8OG:A repair function score | -1.74 |
| Y469C | 8OG:A repair function score | -0.193 |
| M478Y | 8OG:A repair function score | 0.0167 |
| P437E | 8OG:A repair function score | 0.0852 |
| E452P | 8OG:A repair function score | -0.856 |
| E64K | 8OG:A repair function score | -0.115 |
| A513D | 8OG:A repair function score | 0.0137 |
| D224T | 8OG:A repair function score | -0.955 |
| R163S | 8OG:A repair function score | -0.122 |
| P317V | 8OG:A repair function score | 0.0214 |
| T424E | 8OG:A repair function score | -0.45 |
| K390T | 8OG:A repair function score | -0.141 |
| L169N | 8OG:A repair function score | -0.172 |
| V165S | 8OG:A repair function score | -0.732 |
| R409P | 8OG:A repair function score | -0.541 |
| E90A | 8OG:A repair function score | 0.00572 |
| A456T | 8OG:A repair function score | -0.365 |
